molecular target: T1, monkey GPC3 on HEK293T-monkey GPC3 cells (monkey); experiment: FACS on HEK293T-monkey GPC3 cells
T1 construct: whole, on cells
RECORDED METRIC: Max MFI (MFI)

1) hAb006LH2L1 (antibody, human IgG1, V domains shown, Humanized F3.38.7) VH: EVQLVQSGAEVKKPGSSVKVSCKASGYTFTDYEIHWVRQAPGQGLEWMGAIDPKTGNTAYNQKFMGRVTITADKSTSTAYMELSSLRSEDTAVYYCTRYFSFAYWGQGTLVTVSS VL: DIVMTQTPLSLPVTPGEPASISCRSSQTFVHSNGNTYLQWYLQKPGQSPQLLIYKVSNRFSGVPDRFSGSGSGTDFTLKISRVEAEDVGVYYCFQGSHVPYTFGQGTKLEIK : 32800
2) hAb001H2L1b (antibody, human IgG1, V domains shown, Humanized F2.169.2) VH: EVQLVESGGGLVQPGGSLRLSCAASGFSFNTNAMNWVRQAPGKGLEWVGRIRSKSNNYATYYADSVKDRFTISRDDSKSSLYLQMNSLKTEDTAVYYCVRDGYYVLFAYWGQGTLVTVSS VL: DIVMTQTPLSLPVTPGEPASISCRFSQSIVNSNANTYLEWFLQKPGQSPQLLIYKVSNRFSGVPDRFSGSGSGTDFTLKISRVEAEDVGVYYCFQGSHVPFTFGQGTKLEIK : 33100
3) hAb007LH1L1 (antibody, human IgG1, V domains shown, Humanized F3.81.19) VH: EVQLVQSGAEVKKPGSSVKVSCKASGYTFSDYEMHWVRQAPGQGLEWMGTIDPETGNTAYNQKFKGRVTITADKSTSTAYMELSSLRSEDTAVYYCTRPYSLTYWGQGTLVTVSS VL: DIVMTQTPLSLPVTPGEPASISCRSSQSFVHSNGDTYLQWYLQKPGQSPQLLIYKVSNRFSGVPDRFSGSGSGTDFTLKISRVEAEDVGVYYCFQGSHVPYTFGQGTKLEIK : 36300

# credit: patent US20260116991A1
